System: CP260
Assay: qHTS profiling for inhibitors of Plasmodium falciparum proliferation (AID 504749); further: nearly all actives have a fitted effect of over 60% in size
Conditions: P. falciparum in erythrocytes, SYBR Green DNA, 72 h; series mostly up to 28.7 µM
Results filed as inconclusive are left out. The source made the active and inactive calls. The call rests on the fitted dose curve; in most records, active means well fitted inhibition curve with a large enough effect; inconclusive means small, poorly fitted or top-dose-only effect; inactive means flat fitted curve, though single readings scatter.
READOUT_LABEL: outcome

N[C@H](Cc1c[nH]c2ccccc12)C(=O)O | inactive
C[N+]1(CCCCC[N+]2(C)CCCC2)CCCC1 | inactive
CC(C)(Oc1ccc(Cl)cc1)C(=O)O | inactive
C[C@H]1C[C@H]2[C@@H]3CCC4=CC(=O)C=C[C@]4(C)[C@@]3(Cl)[C@@H](O)C[C@]2(C)[C@@]1(O)C(=O)CO | inactive
